Tested on: HT-29
Assay: NCI tumour cell line growth inhibition, 48 h
Calls of active or inactive are those of the source. Rule as the data show it: active = GI50 up to about 1.1 µM and inactive = higher.
Please go through the items and note down their GI50.

Form field GI50, entry N#C/C(=C\c1cc2ccccc2c2ccccc12)c1ccccc1 : 4.45 µM (inactive)

Form field GI50, entry NCCCNc1ccc2c3c(nn2CCNCCO)-c2c(O)ccc(O)c2C(=O)c13 : 3.68 µM (inactive)

Form field GI50, entry COc1cc(C2SCC(=O)N2c2ccccn2)cc(OC)c1OC (centres undefined) : > 100 µM (inactive)

Form field GI50, entry COc1ccccc1NC(=S)N/N=C/c1cccc(C)n1 : 4.17 µM (inactive)

----------
Test system: UO-31
Test: NCI tumour cell line growth inhibition, 48 h
The source made the active and inactive calls. Cut-off read from the data, not from the text of the source: active = GI50 up to about 1.1 µM and inactive = higher.
Outcome field: choose from active, inactive

QUERY: # fetch the recorded call for O=C1C=CC(=O)N1n1c(Cc2ccccc2)n[nH]c1=O here
RESULT: inactive

QUERY: # fetch the recorded call for O=C(O)/C=C/C(=O)O [FUMARIC ACID] here
RESULT: inactive

QUERY: # fetch the recorded call for Nc1nc2c(ncn2C2OC(CO)C(O)C2N)c(=O)[nH]1 (stereo unspecified) here
RESULT: inactive

QUERY: # fetch the recorded call for CC(=O)C(C(=O)C(=O)Nc1cc(Cl)c(Cl)cc1Cl)c1csc(N)n1 (stereo unspecified) here
RESULT: inactive

QUERY: # fetch the recorded call for C/C(=N/NC(=S)Nc1ccc(C)cc1)c1ccccn1 here
RESULT: active

QUERY: # fetch the recorded call for N/N=C1\C(=O)N(c2ccc(Cl)c(Cl)c2)C(=O)C1C(=O)Nc1ccc(Cl)c(Cl)c1 (stereo unspecified) here
RESULT: inactive

----------
Please go through the items and note down their GI50.
System: SF-295
Assay: NCI tumour cell line growth inhibition, 48 h
The source made the active and inactive calls. Cut-off read from the data, not from the text of the source: active = GI50 up to about 1.1 µM and inactive = higher.

Form field GI50, entry CCOC(=O)N1CCN(c2c(N)nc(C)nc2O)CC1 : > 100 µM (inactive)

Form field GI50, entry COC(=O)/C(=N\NC(N)=O)C(C(=O)C=C(C)C)C(=O)C(=O)Nc1ccc(Cl)c(Cl)c1 (stereo not drawn) : > 100 µM (inactive)

Form field GI50, entry COc1ccc(N(CN2C(=O)CCC2OC)C(C)=O)cc1 (stereo not drawn) : > 100 µM (inactive)

----------
Please go through the items and note down their GI50.
Tested on: MDA-MB-231
Assay: NCI tumour cell line growth inhibition, 48 h
The source made the active and inactive calls. Cut-off read from the data, not from the text of the source: active = GI50 up to about 1.1 µM and inactive = higher.

Form field GI50, entry S=c1oc(CCCCCCCCc2nn(CNc3ccc(Cl)cc3)c(=S)o2)nn1CNc1ccc(Cl)cc1 : > 100 µM (inactive)

Form field GI50, entry O=CN/C=C/c1cccc(O)c1 : 49.8 µM (inactive)

Form field GI50, entry O=S(=O)(Nc1nc2ccccc2nc1N1CCCCCC1)c1ccccc1 : > 100 µM (inactive)

Form field GI50, entry COc1cc(OC)c2c(c1-c1ccc(C)cc1)CC(C)N(Cc1ccccc1)[C@H]2C (stereo partly drawn) : 51.3 µM (inactive)

Form field GI50, entry O=C1NN=C(c2ccc(Cl)cc2)CC1C1C(=O)N(c2ccccc2)N=C1c1ccccc1 (stereo not drawn) : 35.9 µM (inactive)

Form field GI50, entry Oc1ccc(Cl)cc1/N=N\c1c(O)ccc2ccccc12 : > 100 µM (inactive)

Form field GI50, entry CC(=O)O[C@H]1CC[C@@]2(C)C(=CC[C@@H]3[C@@H]2CC[C@]2(C)C(=N/O)/C(=C\c4ccccc4)C[C@@H]32)C1 : 20.5 µM (inactive)

Form field GI50, entry Oc1cc(CF)nc(S)n1 : > 100 µM (inactive)

Form field GI50, entry COc1ccc(OC)c(N2C(=O)CSC2c2cc(OC)c(OC)c(OC)c2)c1 (stereo not drawn) : > 100 µM (inactive)

Form field GI50, entry COc1cc(C2SCC(=O)N2c2ccccn2)cc(OC)c1OC (stereo not drawn) : > 100 µM (inactive)

Form field GI50, entry CCN(CC)c1ccc2cc(C(N)=S)c(=N)oc2c1 : > 100 µM (inactive)

Form field GI50, entry CCCC[N+](CCCC)(CCCC)CCCC.O=S(=O)([O-])ON=C1c2ccccc2-c2ccccc21 : > 100 µM (inactive)

Form field GI50, entry Cc1cc(NC(=O)NC(=O)c2ccccc2N(C)C)ccc1Oc1ncc(Br)cn1 : 1.45 µM (inactive)

----------
Test system: T47D
Assay: NCI tumour cell line growth inhibition, 48 h
The source made the active and inactive calls. No stated cut-off is given here; in the data, active = GI50 up to about 1.1 µM and inactive = higher. *1 amine or outer side, *2 acyl side, *3 side chain or, on linkers, in order; H or OH if unused. Where a SMILES comes first, the peptide text is derived from it. Bridges are numbered along the chain shown (N, C = ends). [ ]: non-standard residue; d: D form. ξ: configuration not given here. X10 = CCC(C)C(N[*:1])C(O)CC(=O)O[C@H](C(=O)C(C)C(=O)[*:2])C(C)C; NMeY = CN[C@@H](Cc1ccc(O)cc1)C(=O)O; ξNMeL = CNC(CC(C)C)C(=O)O; ξT = CC(O)C(N)C(=O)O
Outcome field: choose from active, inactive

QUERY: # fetch the recorded call for O=C1C=CC2CCC1C2 (stereo unspecified) here
RESULT: inactive

QUERY: # fetch the recorded call for c1ccc2c(c1)sc1c3cnccc3ccc21 here
RESULT: inactive

QUERY: # fetch the recorded call for CC1(CC2=C(C(=O)NCCO[Si](C)(C)C(C)(C)C)C3(OCCO3)C2=O)OCCO1 here
RESULT: inactive

QUERY: # fetch the recorded call for CCC(C)C1NC(=O)C(NC(=O)C(CC(C)C)N(C)C(=O)[C@@H]2CCCN2)C(C)OC(=O)[C@H](Cc2ccc(OC)cc2)N(C)C(=O)[C@@H]2CCCN2C(=O)[C@H](CC(C)C)NC(=O)C(C)C(=O)[C@H](C(C)C)OC(=O)CC1O (stereo partly specified) (H-P[ξNMeL][ξT][X10]LP[NMeY](Me); ester 3-C) here
RESULT: active

QUERY: # fetch the recorded call for C=C(C(=O)OCC)C(=O)OCC here
RESULT: inactive

QUERY: # fetch the recorded call for O=[N+]([O-])c1ccc(/N=N/c2c(O)ccc3cc(S(=O)(=O)O)cc(S(=O)(=O)O)c23)cc1 here
RESULT: inactive

QUERY: # fetch the recorded call for CSc1c(C#N)c(O)nc(N)c1C(=O)Nc1ccc(C)cc1 here
RESULT: inactive

QUERY: # fetch the recorded call for Cc1c2cccc-2ccc2c1[nH]c1ccc(Br)cc12 here
RESULT: inactive

QUERY: # fetch the recorded call for COc1ccc([C@]23CCC4(OCC(C)(C)CO4)[C@H]4CON(O[C@H](O[C@@H]5CCCCC5C(C)(C)c5ccccc5)C2)[C@@H]43)cc1OC (stereo partly specified) here
RESULT: inactive

QUERY: # fetch the recorded call for c1cc2nnc1SCCSCCSc1ccc(nn1)SCCSCCS2 here
RESULT: inactive

QUERY: # fetch the recorded call for N#Cc1ccc(CSC2=C(c3ccc(Cl)cc3)S/C(=C3\SC(SCc4ccc(C#N)cc4)=C(c4ccc(Cl)cc4)S3)S2)cc1 here
RESULT: inactive

QUERY: # fetch the recorded call for CC(C)NC(=O)OCc1c(COC(=O)NC(C)C)c(-c2cc[n+](COC(=O)C(C)C)cc2)n2c1CCC2 here
RESULT: inactive

QUERY: # fetch the recorded call for O=C(O)CCC(NC(=O)c1ccc(Nc2cnc3ccc(C(F)(F)F)cc3n2)cc1)C(=O)O (stereo unspecified) here
RESULT: inactive

QUERY: # fetch the recorded call for COc1ccc(N(CN2C(=O)CCC2OC)C(C)=O)cc1 (stereo unspecified) here
RESULT: inactive

QUERY: # fetch the recorded call for COc1ccc(OC)c2sc(N3C(=O)/C(=C/c4ccccc4S)N=C3c3ccccc3)nc12 here
RESULT: inactive

QUERY: # fetch the recorded call for O=C1/C(=C/c2ccc(O)cc2)CC/C1=C\c1ccc(O)cc1 here
RESULT: inactive

----------
Tested on: OVCAR-3
Experiment: NCI tumour cell line growth inhibition, 48 h
The source made the active and inactive calls. Rule as the data show it: active = GI50 up to about 1.1 µM and inactive = higher.
Please go through the items and note down their GI50.

Form field GI50, entry OC(C1CCCCCCCCCC1)C(O)C1CCCCCCCCCC1 (stereo not drawn) : > 100 µM (inactive)

Form field GI50, entry COc1ccc(-c2nc(N)c3ncn(C4OC(CO)C(O)C4O)c3n2)cc1 (stereo not drawn) : > 100 µM (inactive)

Form field GI50, entry Cc1cc(C2(c3cc(C)c(O)c(C(=O)O)c3)OS(=O)(=O)c3ccccc32)cc(C(=O)O)c1O : > 100 µM (inactive)

Form field GI50, entry COC(=O)CCC(NC(=S)N/N=C(\C)c1ccc[nH]1)C(=O)OC (stereo not drawn) : > 100 µM (inactive)

Form field GI50, entry C/C(=N/NC(=S)Nc1ccc(C)cc1)c1ccccn1 : 0.0179 µM (active)

Form field GI50, entry COc1cccc2cc(C(=O)Nc3ccccc3)c(=N)oc12 : > 100 µM (inactive)

Form field GI50, entry CCOc1ccc(NC(=O)CCC(=O)NN)cc1 : > 100 µM (inactive)

Form field GI50, entry COc1ccc(OC)c(N2C(=O)CSC2c2cc(OC)c(OC)c(OC)c2)c1 (stereo not drawn) : > 100 µM (inactive)

Form field GI50, entry COc1cc(OC)c2c(=O)c(OC)c(-c3ccc4c(c3)OCO4)oc2c1OC : > 100 µM (inactive)

Form field GI50, entry COc1ccc(-n2c(C)nc3ccc(NC4OCC(OC(C)=O)C(OC(C)=O)C4OC(C)=O)cc3c2=O)cc1 (stereo not drawn) : > 100 µM (inactive)

Form field GI50, entry COc1ccc(CCN2CCC(C#N)(c3ccc(OC)c(OC)c3)CC2)cc1OC : > 100 µM (inactive)

Form field GI50, entry CC(C)NC(=O)OCc1c(COC(=O)NC(C)C)c(-c2cc[n+](COC(=O)C(C)C)cc2)n2c1CCC2 : > 100 µM (inactive)

Form field GI50, entry O=C(Nc1nc2ncn(CCOC(=O)c3ccccc3)c2c(=O)[nH]1)c1ccccc1 : 29.5 µM (inactive)

Form field GI50, entry CC(Oc1ccc2c(=O)cc(-c3ccccc3)oc2c1)C(=O)O (stereo not drawn) : > 100 µM (inactive)

Form field GI50, entry CC(C)N1C(C)[C@@H](c2ccccc2)O[P@]1(=O)CC1=CCCCC1 (stereo partly drawn) : 62.7 µM (inactive)

Form field GI50, entry COC(=O)c1cc(C)ccc1CC(Cc1ccccc1C)C(=O)OC (stereo not drawn) : 24.4 µM (inactive)

Form field GI50, entry Brc1ccc(/C=N/C23CC4CC(CC(C4)C2)C3)cc1 : > 100 µM (inactive)

Form field GI50, entry Oc1c(Br)cc(Br)cc1CN(Cc1cc(Br)cc(Br)c1O)C1CCCCC1 : 15.1 µM (inactive)

Just for reference, ChEMBL document CHEMBL1201862 is where these values come from.
